- TARGET DESC: Protein deacetylase HDAC6 (Homo sapiens)
- Sequence (Q9UBN7 whole entry): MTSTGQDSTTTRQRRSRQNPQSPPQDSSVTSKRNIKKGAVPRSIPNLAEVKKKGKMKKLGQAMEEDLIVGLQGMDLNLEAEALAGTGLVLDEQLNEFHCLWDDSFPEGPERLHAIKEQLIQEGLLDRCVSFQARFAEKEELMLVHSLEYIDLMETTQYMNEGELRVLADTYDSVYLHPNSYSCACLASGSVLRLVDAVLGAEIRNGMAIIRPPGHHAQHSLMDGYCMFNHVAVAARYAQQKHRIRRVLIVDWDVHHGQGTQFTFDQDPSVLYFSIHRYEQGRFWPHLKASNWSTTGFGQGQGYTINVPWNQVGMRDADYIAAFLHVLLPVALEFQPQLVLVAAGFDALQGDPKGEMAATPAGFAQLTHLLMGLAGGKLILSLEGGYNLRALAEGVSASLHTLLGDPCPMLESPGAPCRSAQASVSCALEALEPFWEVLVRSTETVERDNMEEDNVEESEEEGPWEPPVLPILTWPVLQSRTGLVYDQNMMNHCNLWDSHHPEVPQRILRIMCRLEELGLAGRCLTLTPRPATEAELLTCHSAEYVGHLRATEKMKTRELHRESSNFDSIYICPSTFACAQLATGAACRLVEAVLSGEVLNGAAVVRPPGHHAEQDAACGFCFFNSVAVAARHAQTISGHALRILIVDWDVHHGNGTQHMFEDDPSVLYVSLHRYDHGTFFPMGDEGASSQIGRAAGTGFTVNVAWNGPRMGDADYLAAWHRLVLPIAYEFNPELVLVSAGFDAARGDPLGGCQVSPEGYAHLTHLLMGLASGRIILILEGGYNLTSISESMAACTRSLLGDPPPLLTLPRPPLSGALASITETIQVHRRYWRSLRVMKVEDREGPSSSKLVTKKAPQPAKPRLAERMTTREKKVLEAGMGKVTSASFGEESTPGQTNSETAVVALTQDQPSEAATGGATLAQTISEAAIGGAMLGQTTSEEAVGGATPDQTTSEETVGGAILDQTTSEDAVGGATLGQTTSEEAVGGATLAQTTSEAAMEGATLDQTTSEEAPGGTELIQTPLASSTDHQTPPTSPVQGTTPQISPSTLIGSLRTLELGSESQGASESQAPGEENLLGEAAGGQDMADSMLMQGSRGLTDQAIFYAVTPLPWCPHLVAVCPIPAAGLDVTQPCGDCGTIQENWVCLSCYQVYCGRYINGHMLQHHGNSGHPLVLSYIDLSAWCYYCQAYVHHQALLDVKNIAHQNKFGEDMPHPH
- ASSAY INFO: Inhibition of recombinant HDAC6 expressed in HEK293 cells
PARAMETER MEASURED: IC50 (nM)

CCSC(=S)SCC(=O)c1ccc(NC(C)=O)cc1
180
CCSC(=S)SCC(=O)c1ccc(C(=O)NCc2ccccc2)s1
44
COc1ccc(C(=O)CSC(=S)SCCNC(C)=O)cc1
1640
CCSC(=S)SCC(=O)c1ccc(C(=O)Nc2ccccc2)cc1
521
CCSC(=S)SCC(=O)c1cccc(C(=O)NCCOc2ccccc2)c1
198

A. CCOC(=S)SCC(=O)c1ccc(OC)cc1
B. CCSC(=S)SCC(=O)c1cccc(NC(=O)c2ccccc2)c1
C. CCSC(=S)SCC(=O)c1cccc(CNC(C)=O)c1
# input # desc sort on IC50 across 3 molecules Lab note: final answer is the ordered label list.
# output C, A, B
(C: 816 nM, A: 448 nM, B: 65 nM)
